tgt: UniProt:P36544
Sequence (P36544 23-502): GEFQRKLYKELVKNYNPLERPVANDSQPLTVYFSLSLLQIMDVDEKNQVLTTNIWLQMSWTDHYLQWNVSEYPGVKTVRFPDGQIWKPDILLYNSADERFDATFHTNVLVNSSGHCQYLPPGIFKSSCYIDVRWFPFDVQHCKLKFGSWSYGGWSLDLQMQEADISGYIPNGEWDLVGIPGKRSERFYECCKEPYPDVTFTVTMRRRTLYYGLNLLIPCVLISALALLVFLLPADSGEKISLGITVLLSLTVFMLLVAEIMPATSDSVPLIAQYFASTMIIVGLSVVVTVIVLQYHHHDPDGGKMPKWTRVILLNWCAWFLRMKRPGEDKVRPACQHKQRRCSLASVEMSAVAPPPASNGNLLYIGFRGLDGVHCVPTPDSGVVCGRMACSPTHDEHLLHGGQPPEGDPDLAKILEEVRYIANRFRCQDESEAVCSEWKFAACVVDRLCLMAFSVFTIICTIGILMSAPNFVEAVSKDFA
assayDetails: Ca2+ flux imaging (FDSS) (Protocol B), potentiation of the choline response
measurementConditions: Ca2+ assay as described in D.1; "<5" = activity did not reach a top plateau at maximal concentration
recordedEndpoint: EC50

>  <entrySmiles>
CNC(=O)Cn1nc(Nc2ccc3c(c2)OC(F)(F)O3)cc1-c1ccc2c(c1)OCCO2

>  <recordedEndpoint>
EC50

>  <experimentalResult>
1120 nM

$$$$
>  <entrySmiles>
CCNc1cc(-c2cc(Nc3ccc(F)c(F)c3F)nn2C[C@@H](O)CC)ccn1

>  <recordedEndpoint>
EC50

>  <experimentalResult>
759 nM

$$$$
>  <entrySmiles>
CC[C@H](O)Cn1nc(Nc2cc(OC)cc(C(F)(F)F)c2)cc1-c1ccnc(COC)c1

>  <recordedEndpoint>
EC50

>  <experimentalResult>
955 nM

$$$$
>  <entrySmiles>
Cc1cc(-c2cc(Nc3cccc(Cl)c3F)nn2CCC(=O)N(C)C)ccn1

>  <recordedEndpoint>
EC50

>  <experimentalResult>
977 nM

$$$$
>  <entrySmiles>
CCNC(=O)Cn1nc(Nc2cc(F)c(F)c(F)c2)cc1-c1ccnc(C)c1

>  <recordedEndpoint>
EC50

>  <experimentalResult>
851 nM

$$$$
>  <entrySmiles>
CCNC(=O)Cn1nc(Nc2ccc3c(c2)OC(F)(F)O3)cc1-c1ccnc(C)c1

>  <recordedEndpoint>
EC50

>  <experimentalResult>
1000 nM

$$$$

Provenance of the data: patent US8779158B2
